- tested-target: hDDO (human D-aspartate oxidase) (Homo sapiens, UniProt Q99489)
- Sequence (Q99489 whole entry): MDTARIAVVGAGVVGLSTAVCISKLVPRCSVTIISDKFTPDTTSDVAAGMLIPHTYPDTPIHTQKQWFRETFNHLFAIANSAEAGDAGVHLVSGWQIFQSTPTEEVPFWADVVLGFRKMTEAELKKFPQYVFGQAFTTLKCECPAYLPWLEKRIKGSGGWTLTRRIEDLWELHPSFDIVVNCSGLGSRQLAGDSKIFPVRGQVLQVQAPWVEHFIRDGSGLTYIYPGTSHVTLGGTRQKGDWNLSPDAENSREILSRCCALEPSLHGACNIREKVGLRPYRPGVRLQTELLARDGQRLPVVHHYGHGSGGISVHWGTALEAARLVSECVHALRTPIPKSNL

molecule | tested-target | IC50 [µM]
Cc1cc2c(s1)Nc1ccccc1N=C2N1CCN(C)CC1 [olanzapine] | hDDO (human D-aspartate oxidase) (Homo sapiens, UniProt Q99489) | 23.4
